- experimentSummary: Bioavailability in Sprague-Dawley rat po as suspension
- studyConditions: in vivo
parameterMeasured: bioavailability (%)

- Cc1cc(OCc2ccc(F)cc2F)c(Br)c(=O)n1-c1cccc(C(N)=O)c1: 7

====

- experimentSummary: Clearance in iv and po dosed Sprague-Dawley rat
- Type: ADME, organism-based
- studyConditions: in vivo
The entries below come with measured clearance values attached.
parameterMeasured: clearance (mL/min/kg)

* CNC(=O)c1cccc(-n2c(C)cc(OCc3ccc(F)cc3F)c(Br)c2=O)c1 | 8.1
* O=c1c(Cl)c(OCc2ccc(F)cc2F)cc(CO)n1-c1c(F)cccc1F | 5.9
* Cc1cc(OCc2ccc(F)cc2F)c(Br)c(=O)n1-c1cccc(C(N)=O)c1 | 9.34
* Cc1cc(OCc2ccc(F)cc2F)c(Br)c(=O)n1-c1c(F)cccc1F | 28.7
* Cc1cc(OCc2ccc(F)cc2F)c(Cl)c(=O)n1-c1c(F)cccc1F | 12.8
* O=c1c(Br)c(OCc2ccc(F)cc2F)cc(CO)n1-c1c(F)cccc1F | 4

====

- experimentSummary: Metabolic stability in human liver microsomes assessed as compound remaining at 2 uM after 45 mins by LC/MS analysis
- Type: ADME, Microsome
- studyConditions: read-out: Stability
parameterMeasured: remaining at 0.75 h, 2 µM (%)

• CNC(=O)c1cccc(-n2c(C)cc(OCc3ccc(F)cc3F)c(Br)c2=O)c1 = 95
• Cc1cc(OCc2ccc(F)cc2F)c(Br)c(=O)n1-c1ccc(CNC(=O)CN)cc1 = 97
• Cc1cc(OCc2ccc(F)cc2F)c(Cl)c(=O)n1-c1c(F)cccc1F = 74
• O=c1c(Cl)c(OCc2ccc(F)cc2F)cc(CO)n1-c1c(F)cccc1F = 70
• Cc1cc(OCc2ccc(F)cc2F)c(Br)c(=O)n1-c1ccc(CNC(=O)CO)cc1 = 88
• Cc1cc(OCc2ccc(F)cc2F)c(Br)c(=O)n1-c1c(F)cccc1F = 60
• CN(C)Cc1cc(OCc2ccc(F)cc2F)c(Br)c(=O)n1-c1c(F)cccc1F = 0
• Cc1cc(OCc2ccc(F)cc2F)c(Br)c(=O)n1-c1c(F)cc(OCCO)cc1F = 87
• Cc1cc(OCc2ccc(F)cc2F)c(Br)c(=O)n1-c1cccc(C(N)=O)c1 = 100
